tested on: HepG2 cells; assay: resazurin reduction cytotoxicity assay, with CI-isobologram analysis of mixtures; format: cell-based, human; details: Homo sapiens; HepG2, 24 h exposure, resazurin assay; spread in brackets; read-out: IC50
pIC50: −log10 of the molar value.
Experimental Endpoint: pIC50

>>> print(df.to_string())
                         compound_structure  quantitative_result
0  C[C@@H]1Cc2c(Cl)cc(C(=O)N[C@@H](Cc3ccccc3)C(=O)O)c(O)c2C(=O)O1                 3.83

====

test system: HepG2 cells; assay: resazurin reduction cytotoxicity assay, with CI-isobologram analysis of mixtures; type: cell-based, human; details: read-out: IC50
pIC50: −log10 of the molar value.
Experimental Endpoint: pIC50

>>> df
                         compound_structure  quantitative_result
0  CC(=O)OC[C@]12C[C@H](OC(=O)CC(C)C)C(C)=C[C@H]1O[C@@H]1[C@H](O)[C@@H](OC(C)=O)[C@@]2(C)[C@]12CO2                 7.29
